Biological target: HLA-A*33:01
Assay: IEDB peptide-MHC binding, purified MHC/competitive/radioactivity; filed as Kd, often an IC50 or EC50 that approximates it; bounds were set here for any values at or beyond the usual limits of such assays
Conditions: source organism: Vaccinia virus Copenhagen
measured_endpoint: pKd
As a rule, pKd stands for the negative log10 of the concentration, concentration in M.

What is its pKd for HLA-A*33:01? Entry: NTFVNFNSVK
6.07

###

Target: HLA-B*18:01
Experiment: IEDB peptide-MHC binding, purified MHC/competitive/fluorescence; filed as Kd, often an IC50 or EC50 that approximates it; bounds were set here for any values at or beyond the usual limits of such assays
Settings: source organism: Human immunodeficiency virus 1
measured_endpoint: Kd (nM)
Respond numerically; units are nM and should not be typed.

Query the reported Kd for HLA-B*18:01; item: RSLYNTIATLY
119
